- System: MCF7;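 further: secreted proteins added to cultured cells, EdU pulse at the end, nuclei found by Hoechst imaging, EdU status from nuclear versus surrounding ring intensity ratio, PBS as neutral control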
- MEASUREMENT DESCRIPTION: percentage of EdU-negative (G0-arrested) nuclei per well, 72 h; higher = more G0 arrest
- EXPERIMENTAL CONTEXT: protein concentration 0.225 µM; reference: sequence is the full UniProt precursor, the tested protein was the secreted form or ectodomain

>  <SEQUENCE TEXT>
MRLLQLLFRASPATLLLVLCLQLGANKAQDNTRKIIIKNFDIPKSVRPNDEVTAVLAVQTELKECMVVKTYLISSIPLQGAFNYKYTACLCDDNPKTFYWDFYTNRTVQIAAVVDVIRELGICPDDAAVIPIKNNRFYTIEILKVE

>  <U>
%

>  <percentage of EdU-negative>
25.5

$$$$
>  <SEQUENCE TEXT>
MKGICSDAILVLATSMWMAFAIDFPLPMASERGQLDKTIVECLKNVNKCWFLSYIKPSEPICGSDQVTYSSDCHLCSKILFEGLNITKLYDGQCENS [P0C7L1]

>  <U>
%

>  <percentage of EdU-negative>
26.1

$$$$
>  <SEQUENCE TEXT>
MQIITTALVCLLLAGMWPEDVDSKSMQVPFSRCCFSFAEQEIPLRAILCYRNTSSICSNEGLIFKLKRGKEACALDTVGWVQRHRKMLRHCPSKRK

>  <U>
%

>  <percentage of EdU-negative>
25.4

$$$$
>  <SEQUENCE TEXT>
MGTSLLCWMALCLLGADHADTGVSQNPRHKITKRGQNVTFRCDPISEHNRLYWYRQTLGQGPEFLTYFQNEAQLEKSRLLSDRFSAERPKGSFSTLEIQRTEQGDSAMYLCASSL

>  <U>
%

>  <percentage of EdU-negative>
26.8

$$$$
>  <SEQUENCE TEXT>
MLALLCSCLLLAAGASDAWTGEDSAEPNSDSAEWIRDMYAKVTEIWQEVMQRRDDDGALHAACQVQPSATLDAAQPRVTGVVLFRQLAPRAKLDAFFALEGFPTEPNSSSRAIHVHQFGDLSQGCESTGPHYNPLAVPHPQHPGDFGNFAVRDGSLWRYRAGLAASLAGPHSIVGRAVVVHAGEDDLGRGGNQASVENGNAGRRLACCVVGVCGPGLWERQAREHSERKKRRRESECKAA

>  <U>
%

>  <percentage of EdU-negative>
27

$$$$
>  <SEQUENCE TEXT>
MRPQGPAASPQRLRGLLLLLLLQLPAPSSASEIPKGKQKAQLRQREVVDLYNGMCLQGPAGVPGRDGSPGANGIPGTPGIPGRDGFKGEKGECLRESFEESWTPNYKQCSWSSLNYGIDLGKIAECTFTKMRSNSALRVLFSGSLRLKCRNACCQRWYFTFNGAECSGPLPIEAIIYLDQGSPEMNSTINIHRTSSVEGLCEGIGAGLVDVAIWVGTCSDYPKGDASTGWNSVSRIIIEELPK [Q96CG8]

>  <U>
%

>  <percentage of EdU-negative>
22.2

$$$$
>  <SEQUENCE TEXT>
MKLPLLLALLFGAVSALHLRSETSTFETPLGAKTLPEDEETPEQEMEETPCRELEEEEEWGSGSEDASKKDGAVESISVPDMVDKNLTCPEEEDTVKVVGIPGCQTCRYLLVRSLQTFSQAWFTCRRCYRGNLVSIHNFNINYRIQCSVSALNQGQVWIGGRITGSGRCRRFQWVDGSRWNFAYWAAHQPWSRGGHCVALCTRGGHWRRAHCLRRLPFICSY

>  <U>
%

>  <percentage of EdU-negative>
29

$$$$
>  <SEQUENCE TEXT>
MVLCWLLLLVMALPPGTTGVKDCVFCELTDSMQCPGTYMHCGDDEDCFTGHGVAPGTGPVINKGCLRATSCGLEEPVSYRGVTYSLTTNCCTGRLCNRAPSSQTVGATTSLALGLGMLLPPRLL [Q8TDM5]

>  <U>
%

>  <percentage of EdU-negative>
25.5

$$$$
